Reference for the values: patent US11384078B2

- System: L. donovani HU3 strain in mouse peritoneal macrophages
- experiment_description: Assay for inhibition of parasitemia of Leishmania donovani in mouse macrophages (SYBR Green nuclei count, high-content imaging)
- Assay type: cell-based
- conditions: Leishmania donovani, Peritoneal macrophage, L. donovani in mouse peritoneal macrophages; read-out: L. donovani in Mouse Macrophages EC50
endpoint_label: pEC50
Units for pEC50: none; it is -log10 of a concentration expressed in mol/L.

compound	system	pEC50
COCC1CN(c2cnc3nn(-c4cc(NC(=O)N5CC(F)C5)ccc4F)cc3c2)C1 [Compound 232]	L. donovani HU3 strain in mouse peritoneal macrophages	8.00
O=C(Nc1ccc(F)c(-n2cc3cc(N4CCN(CC(F)(F)F)CC4)cnc3n2)c1)N1CCC1 [Compound 250]	L. donovani HU3 strain in mouse peritoneal macrophages	8.00

Okay, next one:
Item O=C(Nc1ccc(F)c(-n2cc3cc(N4CCC5(CC5)C4)cnc3n2)c1)N1CC(F)C1 [Compound 241] has what recorded pEC50?
8.22
